system: HOP-62 NSCLC; assay: NCI tumour cell line growth inhibition, 48 h
Readout kind: TGI (µM)
I only need the number, in µM, no unit after it.

{"columns": ["Substance smiles", "Units of measure", "Endpoint result"],
 "data": [
  ["Nc1ccc(C(OC(=O)c2cc3ccccc3c(Cc3c(O)c(C(=O)OC(c4ccc(N)cc4)(c4ccc(N)cc4)c4ccc(N)cc4)cc4ccccc34)c2O)(c2ccc(N)cc2)c2ccc(N)cc2)cc1", "µM", 14.1]
]}

Next compound, please.
Qu. TGI lookup needed for Cc1ccc2c(C(=O)c3c(C)n(CCN4CCOCC4)c4ccccc34)cccc2c1 , thanks.
Ans. 99.6

* * *

system: ACHN renal; assay: NCI tumour cell line growth inhibition, 48 h
Readout kind: TGI

{"columns": ["Compound", "TGI"],
 "data": [
  ["N#CC[N+]1(Cc2ccccn2)CCCC1", "> 100 µM"],
  ["CCOC(=O)C(NC(=O)CC)(Nc1ccc(F)c(Cl)c1)C(F)(F)F (centres undefined)", "> 100 µM"],
  ["O=C(c1ccc(O)c([N+](=O)[O-])c1)c1ccc(O)c([N+](=O)[O-])c1", "> 100 µM"],
  ["COP(=O)(O)C(N)Cc1c[nH]c2ccccc12 (centres undefined)", "> 100 µM"],
  ["C=C1C(OC/C=C/COC2O[C@@H]3O[C@@]4(C)CC[C@H]5[C@H](C)CC[C@@H](C2=C)[C@@]35OO4)O[C@@H]2O[C@@]3(C)CC[C@H]4[C@H](C)CC[C@@H]1[C@@]24OO3 (some centres undefined)", "17.3 µM"]
]}

Qu. Form field: TGI recorded for O=C1c2ccccc2-c2c1c1ccc([N+](=O)[O-])cc1c(=O)n2CCCNCCO with ACHN renal (enter value)
Ans. 0.48 µM

Qu. Requested read-out TGI, target or system ACHN renal, entry CCOC(=O)C(=O)CC(=O)C1=C(c2ccccc2OC)CC(c2cccs2)=CC1=O
Ans. > 100 µM

Qu. Report TGI for c1ccc(B2OCC(C3OB(c4ccccc4)OC4COB(c5ccccc5)OC43)O2)cc1 (centres undefined) tested on ACHN renal.
Ans. > 100 µM

Qu. Provide the documented TGI with ACHN renal as the system for O=C(O)c1ccccc1N=Nc1ccc2oc(=O)c(C(=O)Nc3ccccc3)cc2c1
Ans. > 100 µM

* * *

test system: SR leukemia; assay: NCI tumour cell line growth inhibition, 48 h
Readout kind: TGI (µM)
Answer in µM, number only, no unit symbol.

Below: 2 molecules and their reported TGI.
{"columns": ["Molecule", "Experimental system", "Units of measure", "TGI"],
 "data": [
  ["CCCN(CCC)C1CCc2c(ccc3cc[nH]c23)C1 (stereo not given)", "SR leukemia", "µM", 73.3],
  ["Cc1cc(N(CCCNc2ccnc3cc(Cl)ccc23)Cc2ccc3c(c2)OCO3)nc(N2CCCCC2)n1", "SR leukemia", "µM", 4.14]
]}

Qu. Consider the molecule shown here: COC1=C2C=[N+](C)C3C(=C2C=CC1OC)Cc1cc2c(cc13)OCO2 (stereo not given) What is its recorded TGI?
Ans. 42

* * *

test system: SK-MEL-5 melanoma; assay: NCI tumour cell line growth inhibition, 48 h
Readout kind: TGI (µM)
Field: numeric (µM). Do not append units.

Look over these answered cases.
{"columns": ["Substance smiles", "Units of measure", "TGI"],
 "data": [
  ["O=C(N/N=C/c1ccc(Cl)cc1Cl)c1ccc2nc(-c3ccc(Cl)cc3)[nH]c2c1", "µM", 3.39],
  ["COc1ccc(-c2cc(-c3cccc(NS(C)(=O)=O)c3)nc(N)c2C#N)cc1", "µM", 4.92],
  ["Cc1ccc(Nc2cc(C)nc(NCCCNc3ccnc4cc(Cl)ccc34)n2)cc1", "µM", 2.71]
]}

Kindly review the next compound as well.
Qu. Using the record for Cc1ccc2c(C(=O)c3c(C)n(CCN4CCOCC4)c4ccccc34)cccc2c1 , report its TGI.
Ans. 13
